Listed next: entries and their corresponding pEC50.
Target: recombinant human AMPK complex 1 (containing α1β1γ1) (Homo sapiens, UniProt Q13131+Q9Y478)
Sequence (Q13131 whole entry): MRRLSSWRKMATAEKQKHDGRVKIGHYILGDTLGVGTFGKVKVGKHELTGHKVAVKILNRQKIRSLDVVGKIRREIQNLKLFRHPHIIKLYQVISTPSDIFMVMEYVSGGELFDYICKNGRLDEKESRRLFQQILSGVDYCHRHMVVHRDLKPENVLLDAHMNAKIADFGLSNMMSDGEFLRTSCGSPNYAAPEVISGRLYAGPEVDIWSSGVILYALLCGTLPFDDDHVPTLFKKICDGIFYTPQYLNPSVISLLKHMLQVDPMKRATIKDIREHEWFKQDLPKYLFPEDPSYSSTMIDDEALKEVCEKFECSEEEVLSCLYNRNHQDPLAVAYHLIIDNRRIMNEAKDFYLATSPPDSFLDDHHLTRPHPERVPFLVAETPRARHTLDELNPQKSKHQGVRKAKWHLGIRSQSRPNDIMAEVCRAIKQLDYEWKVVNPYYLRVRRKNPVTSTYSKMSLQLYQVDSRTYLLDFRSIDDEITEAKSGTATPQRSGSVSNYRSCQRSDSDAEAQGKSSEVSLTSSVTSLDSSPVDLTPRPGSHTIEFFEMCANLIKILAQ
Sequence (Q9Y478 whole entry): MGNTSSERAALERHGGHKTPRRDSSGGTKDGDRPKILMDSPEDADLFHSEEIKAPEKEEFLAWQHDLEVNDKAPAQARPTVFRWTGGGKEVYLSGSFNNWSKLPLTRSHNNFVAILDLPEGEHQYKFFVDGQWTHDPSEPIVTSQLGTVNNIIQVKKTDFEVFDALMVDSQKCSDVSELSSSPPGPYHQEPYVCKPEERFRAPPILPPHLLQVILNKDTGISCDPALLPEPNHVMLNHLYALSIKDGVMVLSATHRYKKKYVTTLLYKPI
Sequence (P54619 whole entry partner): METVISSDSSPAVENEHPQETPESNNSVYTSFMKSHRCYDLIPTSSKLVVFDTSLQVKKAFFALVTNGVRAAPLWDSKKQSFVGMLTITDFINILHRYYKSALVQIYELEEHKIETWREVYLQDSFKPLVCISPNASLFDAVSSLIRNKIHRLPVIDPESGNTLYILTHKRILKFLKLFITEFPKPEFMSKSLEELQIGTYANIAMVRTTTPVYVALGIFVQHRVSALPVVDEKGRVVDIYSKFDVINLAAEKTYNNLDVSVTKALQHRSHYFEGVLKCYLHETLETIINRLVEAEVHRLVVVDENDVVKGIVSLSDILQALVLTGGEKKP
Test: AMPKSAMSF in vitro AMPK activation assay, complex 1
Conditions: inflection point reflecting 50% of the maximum activation; table for human AMPK Complex 1
pEC50: −log10 of the molar value.

MOLECULE	pEC50
OC[C@H]1OC[C@H](Oc2nc3nc(-c4ccc(-c5ccc(-n6nccn6)cc5)cc4)c(Cl)cc3[nH]2)C[C@@H]1O [Example 47]	7.60
O=S(=O)(c1ccc(-c2ccc(-c3nc4nc(O[C@H]5CO[C@H](CO)[C@@H](O)C5)[nH]c4cc3Cl)cc2)cc1)C1COC1 [Example 55]	8.10
CC(C)(O)[C@H]1OC[C@H](Oc2nc3cc(Cl)c(-c4ccc(-c5ccccc5)cc4)nc3[nH]2)C[C@@H]1O [Example 70]	7.51
OC[C@H]1OC[C@H](Oc2nc3nc(-c4ccc(-c5ccc(-n6cccn6)cc5)cc4)c(Cl)cc3[nH]2)C[C@@H]1O [Example 45]	8.52
CC(CO)Oc1ccc(-c2nc3nc(O[C@H]4CO[C@H](CO)[C@@H](O)C4)[nH]c3cc2Cl)cc1 (stereo partly shown) [Example 1]	6.89
O=C(c1ccc(-c2ccc(-c3nc4nc(O[C@H]5CO[C@H](CO)[C@@H](O)C5)[nH]c4cc3Cl)cc2)cc1)N1CC[C@@H](O)C1 [Example 61]	7.44
CS(=O)(=O)c1ccc(-c2ccc(-c3nc4nc(O[C@H]5CO[C@H](CO)[C@@H](O)[C@@H]5O)[nH]c4cc3Cl)cc2)cc1 [Example 67]	8.52
CC(C)(O)c1ccc(-c2ccc(-c3nc4nc(O[C@H]5CO[C@H](CO)[C@@H](O)[C@@H]5O)[nH]c4cc3Cl)cc2)cc1 [Example 66]	7.89
CC(C)(O)c1ccc(-c2ccc(-c3nc4nc(O[C@H]5CO[C@H](CO)[C@@H](O)C5)[nH]c4cc3Cl)cc2)cc1 [Example 39]	8.40
CNC(=O)c1ccc(-c2ccc(-c3nc4nc(O[C@H]5CO[C@H](CO)[C@@H](O)C5)[nH]c4cc3Cl)cc2)cc1 [Example 71]	8.22
O=C(c1ccc(-c2ccc(-c3nc4nc(O[C@H]5CO[C@H](CO)[C@@H](O)C5)[nH]c4cc3Cl)cc2)cc1)N1CCC(O)(C(F)(F)F)CC1 [Example 73]	8.10
O=C(Nc1ccc(-c2ccc(-c3nc4nc(O[C@H]5CO[C@H](CO)[C@@H](O)C5)[nH]c4cc3Cl)cc2)cc1)OCC(O)CO (stereo partly shown) [Example 77]	7.82
O=S(=O)(CC1COC1)c1ccc(-c2ccc(-c3nc4nc(O[C@H]5CO[C@H](CO)[C@@H](O)C5)[nH]c4cc3Cl)cc2)cc1 [Example 54]	8.05

====

Listed next: entries and their corresponding Emax.
Target: recombinant human AMPK complex 1 (containing α1β1γ1) (Homo sapiens, UniProt Q13131+Q9Y478)
Experiment: AMPKSAMSF in vitro AMPK activation assay, complex 1
Type: biochemical
Details: 10-point titration, expressed as % maximum AMP activation

SAMPLE_SMILES	Emax [%]
O=C(c1ccc(-c2ccc(-c3nc4nc(O[C@H]5CO[C@H](CO)[C@@H](O)C5)[nH]c4cc3Cl)cc2)cc1)N1CC[C@@H](O)C1	568
NS(=O)(=O)c1ccc(-c2ccc(-c3nc4nc(O[C@H]5CO[C@H](CO)[C@@H](O)C5)[nH]c4cc3Cl)cc2)cc1	392
OC[C@H]1OC[C@H](Oc2nc3nc(-c4ccc(N5CC[C@H](F)C5)cc4)c(Cl)cc3[nH]2)C[C@@H]1O	473

====

Target: recombinant human AMPK complex 1 (containing α1β1γ1) (Homo sapiens, UniProt Q13131+Q9Y478)
Test: AMPKSAMSF in vitro AMPK activation assay, complex 1
Type: biochemical
Conditions: 10-point titration, expressed as % maximum AMP activation

MOLECULE	Emax / %
OC[C@H]1OC[C@H](Oc2nc3nc(-c4ccc(N5CC[C@@H](O)C5)cc4)c(Cl)cc3[nH]2)C[C@@H]1O [Example 34]	367
O=C(c1ccc(-c2ccc(-c3nc4nc(O[C@H]5CO[C@H](CO)[C@@H](O)C5)[nH]c4cc3Cl)cc2)cc1)N1CCC(O)(C(F)(F)F)CC1 [Example 73]	249
COC(=O)Nc1ccc(-c2ccc(-c3nc4[nH]c(O[C@H]5CO[C@H](CO)[C@@H](O)C5)nc4cc3Cl)cc2)cc1 [Example 74]	460
O=S(=O)(c1ccc(-c2ccc(-c3nc4nc(O[C@H]5CO[C@H](CO)[C@@H](O)C5)[nH]c4cc3Cl)cc2)cc1)C1COC1 [Example 55]	752
O=C(Nc1ccc(-c2ccc(-c3nc4nc(O[C@H]5CO[C@H](CO)[C@@H](O)C5)[nH]c4cc3Cl)cc2)cc1)OCC(O)CO (stereo partly drawn) [Example 77]	494
OC[C@H]1OC[C@H](Oc2nc3nc(-c4ccc(N5CC[C@@H](F)C5)cc4)c(Cl)cc3[nH]2)C[C@@H]1O [Example 35]	489
OC[C@H]1OC[C@H](Oc2nc3nc(-c4ccc(-c5ccc(-c6ccn[nH]6)cc5)cc4)c(Cl)cc3[nH]2)C[C@@H]1O [Example 46]	619
O=C(c1ccc(-c2ccc(-c3nc4nc(O[C@H]5CO[C@H](CO)[C@@H](O)[C@@H]5O)[nH]c4cc3Cl)cc2)cc1)N1CCC(O)CC1 [Example 68]	419
OC[C@H]1OC[C@H](Oc2nc3nc(-c4ccc(-c5ccc(-n6nccn6)cc5)cc4)c(Cl)cc3[nH]2)C[C@@H]1O [Example 47]	590
CNC(=O)c1ccc(-c2ccc(-c3nc4nc(O[C@H]5CO[C@H](CO)[C@@H](O)C5)[nH]c4cc3Cl)cc2)cc1 [Example 71]	443
CC(C)(O)c1ccc(-c2ccc(-c3nc4nc(O[C@H]5CO[C@H](CO)[C@@H](O)[C@@H]5O)[nH]c4cc3Cl)cc2)cc1 [Example 66]	410
CC(C)(O)c1ccc(-c2ccc(-c3nc4nc(O[C@H]5CO[C@H](CO)[C@@H](O)C5)[nH]c4cc3Cl)cc2)cc1 [Example 39]	379
OC[C@H]1OC[C@H](Oc2nc3nc(-c4ccc(-c5ccccc5)cc4)c(Cl)cc3[nH]2)[C@@H](O)[C@@H]1O [Example 62]	545
NC(c1ccc(-c2ccc(-c3nc4nc(O[C@H]5CO[C@H](CO)[C@@H](O)C5)[nH]c4cc3Cl)cc2)cc1)C(F)(F)F (stereo partly drawn) [Example 49]	464
OC[C@H]1OC[C@H](Oc2nc3nc(-c4ccc(-c5ccc(-n6cccn6)cc5)cc4)c(Cl)cc3[nH]2)C[C@@H]1O [Example 45]	417

====

Molecular target: recombinant human AMPK complex 1 (containing α1β1γ1) (Homo sapiens, UniProt Q13131+Q9Y478)
Test: AMPKSAMSF in vitro AMPK activation assay, complex 1
Conditions: inflection point reflecting 50% of the maximum activation; table for human AMPK Complex 1
One threshold, 20 nM, splits the recorded EC50 values: lower ones are Fulfilled, equal or higher ones are Not fulfilled.

MOLECULE	CLASS
OC[C@H]1OC[C@H](Oc2nc3nc(-c4ccc(-c5ccc(-c6ccn[nH]6)cc5)cc4)c(Cl)cc3[nH]2)C[C@@H]1O	Fulfilled
COC(=O)Nc1ccc(-c2ccc(-c3nc4[nH]c(O[C@H]5CO[C@H](CO)[C@@H](O)C5)nc4cc3Cl)cc2)cc1	Not fulfilled
OC[C@H]1OC[C@H](Oc2nc3nc(-c4ccc(-c5ccccc5)cc4)c(Cl)cc3[nH]2)[C@@H](O)[C@@H]1O	Fulfilled
NC(c1ccc(-c2ccc(-c3nc4nc(O[C@H]5CO[C@H](CO)[C@@H](O)C5)[nH]c4cc3Cl)cc2)cc1)C(F)(F)F (stereo partly shown)	Fulfilled
O=C(c1ccc(-c2ccc(-c3nc4nc(O[C@H]5CO[C@H](CO)[C@@H](O)[C@@H]5O)[nH]c4cc3Cl)cc2)cc1)N1CCC(O)CC1	Fulfilled
NS(=O)(=O)c1ccc(-c2ccc(-c3nc4nc(O[C@H]5CO[C@H](CO)[C@@H](O)C5)[nH]c4cc3Cl)cc2)cc1	Fulfilled
OC[C@H]1OC[C@H](Oc2nc3nc(-c4ccc(N5CC[C@H](F)C5)cc4)c(Cl)cc3[nH]2)C[C@@H]1O	Not fulfilled

Data provenance is patent US9382243B2.
